FYI, the data here is from ChEMBL document CHEMBL1138325.

# method.description: Clearance in dog at 5 mg/kg, iv
# Type: ADME, organism-based, Canis lupus familiaris
# Design: dose 5 mg/kg, route intravenous
# measurement.setup: in vivo
metric.name: clearance (mL/min/kg)
The answer is to be given in mL/min/kg; state only the numeric part.

Identify measured clearance corresponding to `CC(C)C[C@H](NC(=O)CCN(C)C)c1cc(Cl)ccc1N1CCN(C(=O)[C@H](C)Cc2ccc(Cl)cc2)CC1` 29.4

====

# method.description: Drug level in CD1 mouse brain at 5 mg/kg, iv after 4 hrs
# Type: ADME, organism-based
# Design: dose 5 mg/kg, route intravenous
# measurement.setup: read-out: Drug uptake
metric.name: concentration at 4 h (ng/g)
The answer is to be given in ng/g; state only the numeric part.

given.smiles: CC(C)C[C@@H](NC(=O)CN)c1cccnc1N1CCN(C(=O)[C@H](C)Cc2ccc(Cl)cc2Cl)CC1
concentration at 4 h / ng/g: 14

Turning to the following molecule.
Identify measured concentration at 4 h corresponding to `CC(C)C[C@H](NC(=O)CCN(C)C)c1cc(Cl)ccc1N1CCN(C(=O)[C@H](C)Cc2ccc(Cl)cc2)CC1` 177
